Reported values of pIC50 for individual entries
System: human APOE RNA
Assay: Dose-dependent inhibition of human APOE RNA in HepG2 cells, electroporation, 50,000 cells per well, RT-PCR normalized to GAPDH (Example 4, Tables 8-10)
Format: cell-based
Conditions: HepG2, electroporation, 24-hour treatment
pIC50: −log10 of the molar value. Strand notation (5' to 3'): a small letter for the sugar, then the base; units joined by * are phosphorothioate-linked, units joined directly phosphodiester-linked; [ ] holds rarer units or linkages, { } end groups; capitals alone tell only the bases. [ms] = mesyl phosphoramidate linkage; k = constrained ethyl (cEt); [5mC] = 5-methylcytosine; d = 2'-deoxy (DNA)
ENDPOINT: pIC50

{"SUBSTANCE": "1746803 (k[5mC]*dT[ms]dT[ms]kG*dG[ms]kT*dG[ms]dA[ms]dA[ms]dT*d[5mC]*dT*dT*dT*dA[ms]dT*kT*dA[ms]kA*kA; antisense) [Compound 1746803]", "ENDPOINT": "pIC50", "TEST_RESULT": 5.96}
{"SUBSTANCE": "1746811 (k[5mC]*dT[ms]dT[ms]kG*kG*dT[ms]dG[ms]dA[ms]dA[ms]dT*d[5mC]*dT*dT*dT*dA[ms]dT*dT[ms]kA*kA*kA; antisense) [Compound 1746811]", "ENDPOINT": "pIC50", "TEST_RESULT": 6.13}
{"SUBSTANCE": "1746789 (k[5mC]*dT[ms]kT*dG[ms]kG*dT[ms]dG[ms]dA[ms]dA[ms]dT*d[5mC]*dT*dT*dT*dA[ms]dT*kT*kA*dA[ms]kA; antisense) [Compound 1746789]", "ENDPOINT": "pIC50", "TEST_RESULT": 6.08}
{"SUBSTANCE": "1746812 (k[5mC]*dT[ms]dT[ms]dG[ms]kG*kT*dG[ms]dA[ms]dA[ms]dT*d[5mC]*dT*dT*dT*dA[ms]dT*dT[ms]kA*kA*kA; antisense) [Compound 1746812]", "ENDPOINT": "pIC50", "TEST_RESULT": 5.82}
{"SUBSTANCE": "1753989 (k[5mC]*dT[ms]kT*dG[ms]kG*dT*dG[ms]dA[ms]dA[ms]dT*d[5mC]*dT*dT*dT*dA[ms]kT*dT[ms]kA*dA[ms]kA; antisense) [Compound 1753989]", "ENDPOINT": "pIC50", "TEST_RESULT": 5.78}
{"SUBSTANCE": "1746799 (k[5mC]*dT[ms]kT*dG[ms]kG*dT[ms]dG[ms]dA[ms]dA[ms]dT*d[5mC]*dT*dT*dT*dA[ms]dT*kT*dA[ms]kA*kA; antisense) [Compound 1746799]", "ENDPOINT": "pIC50", "TEST_RESULT": 5.76}
{"SUBSTANCE": "1746802 (k[5mC]*dT[ms]dT[ms]dG[ms]kG*kT*dG[ms]dA[ms]dA[ms]dT*d[5mC]*dT*dT*dT*dA[ms]dT*kT*dA[ms]kA*kA; antisense) [Compound 1746802]", "ENDPOINT": "pIC50", "TEST_RESULT": 6.11}
{"SUBSTANCE": "1746784 (k[5mC]*kT*kT*dG[ms]dG[ms]dT[ms]dG[ms]dA[ms]dA[ms]dT*d[5mC]*dT*dT*dT*dA[ms]dT*kT*kA*dA[ms]kA; antisense) [Compound 1746784]", "ENDPOINT": "pIC50", "TEST_RESULT": 6.51}
{"SUBSTANCE": "1746790 (k[5mC]*dT[ms]kT*dG[ms]dG[ms]kT*dG[ms]dA[ms]dA[ms]dT*d[5mC]*dT*dT*dT*dA[ms]dT*kT*kA*dA[ms]kA; antisense) [Compound 1746790]", "ENDPOINT": "pIC50", "TEST_RESULT": 6.12}
{"SUBSTANCE": "1746813 (k[5mC]*dT[ms]dT[ms]kG*dG[ms]kT*dG[ms]dA[ms]dA[ms]dT*d[5mC]*dT*dT*dT*dA[ms]dT*dT[ms]kA*kA*kA; antisense) [Compound 1746813]", "ENDPOINT": "pIC50", "TEST_RESULT": 5.65}
